- Tested on: KM12 colon
- assay info: NCI-60 one-dose screen, 48 h
- conditions: 10 µM unless noted
Compounds without any hit were thinned out: in the full panel of roughly 83,000, 20% have a hit. Calls of active or inactive are those of the source. How the source made its calls: active means growth percent below 10; inactive means the rest.
# valid calls are active, inactive; nothing else

Answered cases to consult:
compound	label
CCOC(=O)C1=C(N)N(c2ccccc2)C2=C(C(=O)CC(C)(C)C2)C1c1ccc(Cl)cc1Cl (centres undefined)	inactive
O=c1c2ccccc2nc(-c2ccccc2)n1/N=C/c1ccc2ccccc2c1	inactive
Brc1ccc(N/N=C/c2c[nH]c3ccc(Br)cc23)nc1	active

Request: Given COc1ccc2c(c1)c(-c1cc(N)n3nc(-c4cn(C)c5ccccc45)cc3n1)cn2C , state the outcome it received in this test.
Result: active

// provenance: PubChem BioAssay (NCI)
